Data credit: paper PMC9692247

# assay details: Plasma stability evaluation
# Type: in vitro ADME
# assay conditions: read-out: T1/2 in plasma
quantity: half-life (h)

| compound | unit tag | number |
| --- | --- | --- |
| CC(C)N(Cc1ccc(C(=O)NO)cc1F)S(=O)(=O)c1cc(F)c(F)c(F)c1F [NN-429] | h | 1.55 |

---

# System: SeAx cells
# assay details: Cytotoxicity assay (Cell Titer-Blue, 72 h)
# Format: cell-based
# assay conditions: Homo sapiens, one representative of three experiments
pIC50: −log10 of the molar value.

| chemical structure | pIC50 |
| --- | --- |
| CC(C)N(Cc1ccc(C(=O)NO)cc1F)S(=O)(=O)c1cc(F)c(F)c(F)c1F | 4.91 |
